# target_system: human recombinant HDAC6 (Homo sapiens, UniProt Q9UBN7)
# Construct: purchased Calbiochem Inc. 382180
# Sequence (Q9UBN7 whole entry): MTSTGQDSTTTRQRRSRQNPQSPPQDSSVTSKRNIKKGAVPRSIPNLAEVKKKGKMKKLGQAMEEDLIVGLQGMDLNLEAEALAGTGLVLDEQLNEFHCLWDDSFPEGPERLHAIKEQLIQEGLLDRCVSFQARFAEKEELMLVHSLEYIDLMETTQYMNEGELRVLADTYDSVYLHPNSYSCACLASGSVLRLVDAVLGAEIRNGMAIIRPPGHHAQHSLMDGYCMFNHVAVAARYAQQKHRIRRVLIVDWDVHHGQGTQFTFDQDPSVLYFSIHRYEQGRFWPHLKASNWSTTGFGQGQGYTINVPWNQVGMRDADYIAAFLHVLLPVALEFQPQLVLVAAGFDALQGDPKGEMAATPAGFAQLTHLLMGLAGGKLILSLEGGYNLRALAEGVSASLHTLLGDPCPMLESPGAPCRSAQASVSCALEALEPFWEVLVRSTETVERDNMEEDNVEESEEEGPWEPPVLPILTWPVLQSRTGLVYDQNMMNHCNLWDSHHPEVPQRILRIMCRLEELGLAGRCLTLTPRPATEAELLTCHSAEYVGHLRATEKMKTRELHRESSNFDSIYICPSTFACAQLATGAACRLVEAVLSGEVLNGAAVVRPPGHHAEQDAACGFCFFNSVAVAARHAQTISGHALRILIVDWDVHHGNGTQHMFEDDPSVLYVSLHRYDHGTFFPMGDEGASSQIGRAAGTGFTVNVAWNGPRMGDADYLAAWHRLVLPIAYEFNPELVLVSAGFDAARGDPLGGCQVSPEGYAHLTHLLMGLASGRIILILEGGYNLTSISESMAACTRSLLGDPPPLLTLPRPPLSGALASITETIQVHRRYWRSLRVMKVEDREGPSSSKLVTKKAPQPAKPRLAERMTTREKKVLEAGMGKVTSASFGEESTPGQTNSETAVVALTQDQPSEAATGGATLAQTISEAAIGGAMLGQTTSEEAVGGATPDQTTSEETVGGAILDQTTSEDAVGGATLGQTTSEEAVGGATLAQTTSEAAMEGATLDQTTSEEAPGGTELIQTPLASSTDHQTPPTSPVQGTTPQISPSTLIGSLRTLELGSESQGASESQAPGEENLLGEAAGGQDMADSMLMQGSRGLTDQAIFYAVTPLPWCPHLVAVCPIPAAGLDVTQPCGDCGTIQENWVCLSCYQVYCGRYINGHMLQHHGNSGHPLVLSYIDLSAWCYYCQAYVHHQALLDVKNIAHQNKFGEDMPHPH
# test_description: HDAC6 enzyme activity inhibition (HDAC Fluorimetric Drug Discovery Kit)
# Format: biochemical
# condition_description: HDAC1 IC50 / HDAC6 IC50
Okay, here is how we bin by HDAC6 selectivity (fold): lower range (below 700 fold), middle range (700 fold to below 2000 fold), upper range (2000 fold or more)

Worked cases, answers included:
| smiles_notation | target_system | label_class |
| --- | --- | --- |
| Cc1ccc(-c2cn(Cc3ccc(-c4nnc(C(F)F)o4)cc3F)nn2)cc1 | human recombinant HDAC6 (Homo sapiens, UniProt Q9UBN7) | lower range |
| FC(F)c1nnc(-c2ccc(Cn3cc(-c4ccc(Br)cn4)nn3)nc2)o1 | human recombinant HDAC6 (Homo sapiens, UniProt Q9UBN7) | middle range |
| CCOC(=O)N1CCC(c2cn(Cc3ccc(-c4nnc(C(F)F)o4)cn3)nn2)CC1 | human recombinant HDAC6 (Homo sapiens, UniProt Q9UBN7) | lower range |
| CN(C)CCC(=O)Nc1cccc(-c2cn(Cc3ccc(-c4nnc(C(F)F)o4)cn3)nn2)c1 | human recombinant HDAC6 (Homo sapiens, UniProt Q9UBN7) | middle range |
| CCN1[C@H](C)CN(c2cccc(-c3cn(Cc4ccc(-c5nnc(C(F)F)o5)cc4F)nn3)c2)C[C@@H]1C | human recombinant HDAC6 (Homo sapiens, UniProt Q9UBN7) | middle range |

Req: Looking at CCN1CCN(c2ccc(F)c(-c3cn(Cc4ccc(-c5nnc(C(F)F)o5)cc4)nn3)c2)CC1 , which class would you pick?
Resp: upper range

Req: Looking at C[C@@H]1CN(c2cccc(-c3cn(Cc4ccc(-c5nnc(C(F)F)o5)cc4F)nn3)c2)C[C@H](C)N1 , which class would you pick?
Resp: middle range

Req: Looking at FC(F)c1nnc(-c2ccc(Cn3cc(-c4ccc5c(CN6CCOCC6)c[nH]c5c4)nn3)cc2)o1 , which class would you pick?
Resp: upper range

Req: Looking at Fc1cc(-c2nnc(C(F)F)o2)ccc1Cn1cc(-c2ccc(F)c(N3C[C@@H]4C[C@H]3CN4)c2)nn1 , which class would you pick?
Resp: lower range

Req: Looking at FC(F)c1nnc(-c2ccc(Cn3cc(-c4ccc5[nH]ncc5c4)nn3)nc2)o1 , which class would you pick?
Resp: upper range

###

Reported HDAC6 selectivity (fold) values for the following molecules.
# target_system: human recombinant HDAC6 (Homo sapiens, UniProt Q9UBN7)
# Construct: purchased Calbiochem Inc. 382180
# test_description: HDAC6 enzyme activity inhibition (HDAC Fluorimetric Drug Discovery Kit)
# Type: biochemical
# condition_description: HDAC6 over HDAC1
Write the number in fold without appending the unit.

Here are 3 molecules together with their reported answers.
| molecule | target_system | display_unit | HDAC6 selectivity (fold) |
| --- | --- | --- | --- |
| Fc1cc(-c2nnc(C(F)F)o2)cnc1Cn1cc(-c2cccc3[nH]ncc23)nn1 [Compound 19058] | human recombinant HDAC6 (Homo sapiens, UniProt Q9UBN7) | fold | 2304 |
| CN(C)Cc1ccc(-c2cn(Cc3ccc(-c4nnc(C(F)F)o4)cc3F)nn2)cn1 [Compound 18176] | human recombinant HDAC6 (Homo sapiens, UniProt Q9UBN7) | fold | 705 |
| CCN1Cc2cccc(-c3cn(Cc4ccc(-c5nnc(C(F)F)o5)cc4)nn3)c2C1 [Compound 4530] | human recombinant HDAC6 (Homo sapiens, UniProt Q9UBN7) | fold | 449 |

Then this molecule:
Req: Look up HDAC6 selectivity (fold): C[C@@H]1CN(c2cccc(-c3cn(Cc4ncc(-c5nnc(C(F)F)o5)cc4F)nn3)c2)C[C@H](C)N1C [Compound 18961]
Resp: 782
